Test system: SF-268
Experiment: Cytotoxicity against human SF268 cells by resazurin dye based Alamar blue assay
Type: functional, cell-based
METRIC: IC50

Field IC50 (system: SF-268) for entry "COc1cc(O)c2c(c1)C(=O)C(C)=CC2=O" = > 5 µM

The measured IC50 that "COc1cc(O)c2c(c1)C(=O)c1cocc1C2=O" showed for SF-268 is > 5 µM

====

Tested on: MCF7
Assay: Cytotoxicity against human MCF7 cells by resazurin dye based Alamar blue assay
Format: functional, cell-based
METRIC: IC50 (µM)
Provide only the numeric value, understood in µM.

Entry "COc1cc(O)c2c(c1)C(=O)C(C)=CC2=O" — recorded IC50 = 3.1

====

Test system: NCI-H460
Test: Cytotoxicity against human NCI-H460 cells by resazurin dye based Alamar blue assay
Assay type: functional, cell-based
METRIC: IC50

Item: COc1cc(O)c2c(c1)C(=O)c1cocc1C2=O [MONOSPORASCONE] | IC50: > 5000 nM

Per the records, this compound ( "COc1cc(O)c2c(c1)C(=O)C(C)=CC2=O" ) has IC50 equal to > 5000 nM

According to the records, this compound COc1cccc2c1C(=O)c1c(O)c3c(c(O)c1C2=O)C[C@@](O)(C(=O)CO)C[C@@H]3O[C@H]1C[C@H](N)[C@H](O)[C@H](C)O1 [DOXORUBICIN] displays IC50 of 400 nM

Values compiled from ChEMBL document CHEMBL4251658.
